test: Cytotoxicity against human erythrocytes assessed as cell viability measured after 24 hrs by MTT assay; format: toxicity, cell-based, Erythrocyte
measure: IC50 at 24 h

# input Which IC50 at 24 h reading was recorded for the molecule "CCn1nc(C)n(-c2ccc3c(c2)OCO3)c1=O" ?
# output > 500 µM

Further cases:
# input Which IC50 at 24 h reading was recorded for the molecule "CCn1nc(C)n(-c2ccc(F)c(Cl)c2)c1=O" ?
# output > 500 µM

# input Which IC50 at 24 h reading was recorded for the molecule "COc1ccc(-n2c(C)nn(C)c2=O)cc1OC" ?
# output > 500 µM

# input Which IC50 at 24 h reading was recorded for the molecule "CCc1nn(C)c(=O)n1-c1ccc2c(c1)OCO2" ?
# output > 500 µM

# input Which IC50 at 24 h reading was recorded for the molecule "CCc1nn(CC)c(=O)n1-c1cccc(C(F)(F)F)c1" ?
# output > 500 µM

# input Which IC50 at 24 h reading was recorded for the molecule "Cc1nn(C)c(=O)n1-c1ccc2c(c1)OCO2" ?
# output > 500 µM

# input Which IC50 at 24 h reading was recorded for the molecule "CCc1nn(C)c(=O)n1-c1ccc(F)c(Cl)c1" ?
# output > 500 µM

# input Which IC50 at 24 h reading was recorded for the molecule "CCc1nn(C)c(=O)n1-c1ccc(OC)c(OC)c1" ?
# output > 500 µM

# input Which IC50 at 24 h reading was recorded for the molecule "CCn1nc(C)n(-c2ccc(OC)c(OC)c2)c1=O" ?
# output > 500 µM
